MIC values, listed per item
Tested on: Mycobacterium tuberculosis
experiment_notes: Antimicrobial activity against Mycobacterium tuberculosis H37Rv ATCC 27294 by microplate Almar blue assay
Assay type: functional
condition_notes: Mycobacterium tuberculosis, H37Rv ATCC 27294; read-out: MIC
Kindly provide the numeric value in µg/mL only, without the unit symbol.

Would you mind telling me what MIC value was observed for N=C1NC[C@H](Cc2ccccc2)N1CC1CCCN1C[C@H](Cc1ccccc1)N1C[C@H](Cc2ccccc2)N(CCC2CCCCC2)C1=N (some centres undefined) ?
3.9

###

Overview of recorded MIC for various molecules
Tested on: Mycobacterium tuberculosis
experiment_notes: Antimicrobial activity against Mycobacterium tuberculosis H37Rv ATCC 27294 by microplate Almar blue assay
Assay type: functional
condition_notes: Mycobacterium tuberculosis, H37Rv ATCC 27294; read-out: MIC
Express your answer in µg/mL, writing the number without its unit.

# count of solved cases: 5
c1ccc(CCN2CCN([C@@H](Cc3ccc4ccccc4c3)CN3CCCC3CN3CCNC[C@@H]3Cc3ccccc3)C[C@@H]2Cc2ccccc2)cc1 (some centres undefined) ... 3.9
Clc1ccc(CCN2CCN([C@@H](Cc3ccccc3)CN3CCCC3CN3CCNC[C@@H]3Cc3ccccc3)C[C@@H]2Cc2ccccc2)cc1Cl (some centres undefined) ... 3.9
c1ccc(C[C@H]2CNCCN2CC2CCCN2C[C@H](Cc2ccccc2)N2CCN(CC3(c4ccccc4)CC3)[C@@H](Cc3ccccc3)C2)cc1 (some centres undefined) ... 3.9
c1ccc(C[C@H]2CNCCN2CC2CCCN2C[C@H](Cc2ccccc2)N2CCN(CCc3ccc(-c4ccccc4)cc3)[C@@H](Cc3ccccc3)C2)cc1 (some centres undefined) ... 3.9
Cc1cccc(CCN2CCN([C@@H](Cc3ccccc3)CN3CCCC3CN3CCNC[C@@H]3Cc3ccccc3)C[C@@H]2Cc2ccccc2)c1 (some centres undefined) ... 3.9

Query: MIC; subject: N=C1NC[C@H](Cc2ccccc2)N1CC1CCCN1C[C@H](Cc1ccccc1)N1C[C@H](Cc2ccccc2)N(CCCCC2CCCCC2)C1=N (some centres undefined)
3.9

Lookup CCCC[C@@H](CN1CCCC1CN1CCNC[C@@H]1Cc1ccccc1)N1CCN(CCc2ccccc2)[C@@H](Cc2ccccc2)C1 (some centres undefined)
3.9
